So I've got a bunch of binders here, and I need their IC50 in IL-17RA/IL7RC dimerization assay values.
target.system: IL-17A (agonist in the IL-17RA/IL17RC dimerization assay) (UniProt Q16552 24-155)
Sequence (Q16552 24-155 limits assumed): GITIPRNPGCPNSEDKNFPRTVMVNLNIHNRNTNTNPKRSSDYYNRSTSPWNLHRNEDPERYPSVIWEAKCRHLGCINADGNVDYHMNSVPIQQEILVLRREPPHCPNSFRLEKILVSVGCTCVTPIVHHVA
experiment.notes: cell-based or functional assay
No end group written: not given here.

What IC50 in IL-17RA/IL7RC dimerization assay value was documented for this binder, Ac-IHVTIPADLWDWINE-NH2 [peptide of SEQ ID NO: 12] ?
< 0.2 µM

What IC50 in IL-17RA/IL7RC dimerization assay value was documented for this binder, Ac-IHVSIPADLWDWINK-NH2 [peptide of SEQ ID NO: 175] ?
< 10 µM

What IC50 in IL-17RA/IL7RC dimerization assay value was documented for this binder, Ac-VMVTIPADLYEWIEEVPGWG-NH2 [peptide of SEQ ID NO: 24] ?
< 1 µM

What IC50 in IL-17RA/IL7RC dimerization assay value was documented for this binder, Ac-IHVTIPADLWDFINK-NH2 [peptide of SEQ ID NO: 210] ?
< 10 µM

What IC50 in IL-17RA/IL7RC dimerization assay value was documented for this binder, Ac-VRGYVPADLWDWINK-NH2 [peptide of SEQ ID NO: 242] ?
< 10 µM

What IC50 in IL-17RA/IL7RC dimerization assay value was documented for this binder, Ac-IHVTIPLEIFEWAQH-NH2 [peptide of SEQ ID NO: 247] ?
< 10 µM

What IC50 in IL-17RA/IL7RC dimerization assay value was documented for this binder, Ac-IHVTIPADLYDWINK-NH2 [peptide of SEQ ID NO: 6] ?
< 0.4 µM

What IC50 in IL-17RA/IL7RC dimerization assay value was documented for this binder, Ac-VMVTIPADLYEWINK-NH2 [peptide of SEQ ID NO: 16] ?
< 0.4 µM

What IC50 in IL-17RA/IL7RC dimerization assay value was documented for this binder, Ac-VEFNFPQQVYEWVRR-NH2 [peptide of SEQ ID NO: 256] ?
< 10 µM

What IC50 in IL-17RA/IL7RC dimerization assay value was documented for this binder, Ac-VRVTVPQELYEWVRR-NH2 [peptide of SEQ ID NO: 234] ?
< 10 µM

What IC50 in IL-17RA/IL7RC dimerization assay value was documented for this binder, Ac-IHVTIPAYLWDWINK-NH2 [peptide of SEQ ID NO: 200] ?
< 10 µM

What IC50 in IL-17RA/IL7RC dimerization assay value was documented for this binder, {capric acid}-IMVTIPADLYEWIEE [BIO-4] ?
< 1 µM

What IC50 in IL-17RA/IL7RC dimerization assay value was documented for this binder, Ac-VHFTFPQDLWEFVRR-NH2 [peptide of SEQ ID NO: 128] ?
< 0.5 µM

What IC50 in IL-17RA/IL7RC dimerization assay value was documented for this binder, Ac-IHVTFPADLWDWINK-NH2 [peptide of SEQ ID NO: 184] ?
< 10 µM

What IC50 in IL-17RA/IL7RC dimerization assay value was documented for this binder, Ac-VHFTFPQDLWEWFRR-NH2 [peptide of SEQ ID NO: 129] ?
< 0.5 µM

What IC50 in IL-17RA/IL7RC dimerization assay value was documented for this binder, Ac-GHVTIPADLWDWINK-NH2 [peptide of SEQ ID NO: 159] ?
< 10 µM

What IC50 in IL-17RA/IL7RC dimerization assay value was documented for this binder, Ac-VHVTVPQELFEWVEE-NH2 [peptide of SEQ ID NO: 228] ?
< 10 µM

What IC50 in IL-17RA/IL7RC dimerization assay value was documented for this binder, Ac-VHVTIPADLYNFFRR-NH2 [peptide of SEQ ID NO: 149] ?
< 0.5 µM

What IC50 in IL-17RA/IL7RC dimerization assay value was documented for this binder, Ac-VHFQFPADLWEWFRR-NH2 [peptide of SEQ ID NO: 135] ?
< 0.5 µM

What IC50 in IL-17RA/IL7RC dimerization assay value was documented for this binder, Ac-VHVTFPADLWEWVRR-NH2 [peptide of SEQ ID NO: 114] ?
< 0.5 µM

What IC50 in IL-17RA/IL7RC dimerization assay value was documented for this binder, Ac-VHFQFPADLWEFVRR-NH2 [peptide of SEQ ID NO: 134] ?
< 0.5 µM

What IC50 in IL-17RA/IL7RC dimerization assay value was documented for this binder, Ac-IHVTIIADLWDWINK-NH2 [peptide of SEQ ID NO: 190] ?
< 10 µM

What IC50 in IL-17RA/IL7RC dimerization assay value was documented for this binder, Ac-IHVTIPLEIFEWLQH-NH2 [peptide of SEQ ID NO: 246] ?
< 10 µM

What IC50 in IL-17RA/IL7RC dimerization assay value was documented for this binder, Ac-VHFQFPQDWWNWVRR-NH2 [peptide of SEQ ID NO: 139] ?
< 0.5 µM

What IC50 in IL-17RA/IL7RC dimerization assay value was documented for this binder, Ac-IHVTIPLDLWDWINK-NH2 [peptide of SEQ ID NO: 193] ?
< 10 µM

What IC50 in IL-17RA/IL7RC dimerization assay value was documented for this binder, Ac-IHVTIPADLWDWIDK-NH2 [peptide of SEQ ID NO: 221] ?
< 10 µM
